Biological target: Plasmodium falciparum protein kinase 6 (PK6, PF3D7_1337100) (UniProt Q8IDW1)
Sequence (Q8IDW1 1-305): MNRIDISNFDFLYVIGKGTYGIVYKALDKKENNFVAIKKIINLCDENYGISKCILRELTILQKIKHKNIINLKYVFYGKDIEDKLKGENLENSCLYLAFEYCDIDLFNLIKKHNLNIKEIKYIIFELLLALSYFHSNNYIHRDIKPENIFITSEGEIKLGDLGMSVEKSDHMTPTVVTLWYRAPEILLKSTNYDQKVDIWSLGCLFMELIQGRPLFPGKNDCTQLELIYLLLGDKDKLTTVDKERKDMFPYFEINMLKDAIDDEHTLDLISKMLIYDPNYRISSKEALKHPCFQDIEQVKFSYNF
Experiment: PfPK6 kinase inhibitors, biochemical, TCAMS library (AID 1159586)
Conditions: recombinant PfPK6, Kinase-Glo ATP depletion luminescence
Measured potencies and affinities stand elsewhere. Active and inactive are the calls of the source. No rule for the calls is given here.
RESULT_TYPE: outcome

- COMPOUND: "CSc1nccc(-c2ccc3ccnc(N)c3c2)n1"
  SYSTEM_TESTED: "Plasmodium falciparum protein kinase 6 (PK6, PF3D7_1337100) (UniProt Q8IDW1)"
  outcome: "inactive"
- COMPOUND: "CCN1CCC(NCc2ccc(-c3ccc(Cl)s3)cc2)CC1"
  SYSTEM_TESTED: "Plasmodium falciparum protein kinase 6 (PK6, PF3D7_1337100) (UniProt Q8IDW1)"
  outcome: "inactive"
- COMPOUND: "CCN1CCN(CC(O)CNC(=O)Nc2ccc(Cl)cc2)CC1 (stereo not given)"
  SYSTEM_TESTED: "Plasmodium falciparum protein kinase 6 (PK6, PF3D7_1337100) (UniProt Q8IDW1)"
  outcome: "inactive"
- COMPOUND: "O=C(NC1CCN(Cc2ccccc2)CC1)c1ccc2c(=O)n(Cc3ccc(Cl)cc3)c(=S)[nH]c2c1"
  SYSTEM_TESTED: "Plasmodium falciparum protein kinase 6 (PK6, PF3D7_1337100) (UniProt Q8IDW1)"
  outcome: "inactive"
- COMPOUND: "CC1CCc2c(C(=O)Nc3c(F)cc(F)cc3Br)csc2C1 (stereo not given)"
  SYSTEM_TESTED: "Plasmodium falciparum protein kinase 6 (PK6, PF3D7_1337100) (UniProt Q8IDW1)"
  outcome: "inactive"

Provide outcome, tested on Plasmodium falciparum protein kinase 6 (PK6, PF3D7_1337100) (UniProt Q8IDW1), for COc1ccc(CNc2ccnc(-n3cnc4cc(C)c(C)cc43)n2)cc1Cl .
inactive

GET outcome where system = Plasmodium falciparum protein kinase 6 (PK6, PF3D7_1337100) (UniProt Q8IDW1) and item = COc1ccc2[nH]cc(C3CCN(CCCCNC(=O)c4ccc(NC(=O)c5ccc(Cl)cc5)cc4)CC3)c2c1
inactive

Give outcome; test system Plasmodium falciparum protein kinase 6 (PK6, PF3D7_1337100) (UniProt Q8IDW1); compound Cc1cccc(CNc2nc(C)cc(N[C@@H](Cc3ccccc3)C(=O)NCCOc3ccccc3)n2)c1
inactive

Report outcome from Plasmodium falciparum protein kinase 6 (PK6, PF3D7_1337100) (UniProt Q8IDW1) testing of Cc1cnc(C(=O)Nc2cccc(-c3ccc(-c4nc5ccc(C(F)(F)F)cc5[nH]4)s3)c2)cn1
inactive

Report its outcome with Plasmodium falciparum protein kinase 6 (PK6, PF3D7_1337100) (UniProt Q8IDW1) as the test system: O=C(Nc1cccc(-c2cccc(-c3nc4ccc(F)cc4[nH]3)c2)c1)c1ccoc1
inactive

State, for Plasmodium falciparum protein kinase 6 (PK6, PF3D7_1337100) (UniProt Q8IDW1), measured outcome of the compound listed here: Cc1cccc2[nH]c(-c3ccc(-c4ccc(CN5CCC(N)C5)cc4)s3)nc12 (stereo not given)
inactive

Identify measured outcome obtained with Plasmodium falciparum protein kinase 6 (PK6, PF3D7_1337100) (UniProt Q8IDW1) for CCN(CC)CC#Cc1ccc2[nH]c(C)c(Cl)c(=O)c2c1 .
inactive

Fetch value of outcome on Plasmodium falciparum protein kinase 6 (PK6, PF3D7_1337100) (UniProt Q8IDW1) for COc1cc2nc(N3CCC(CNC(=O)/C=C/c4ccccc4F)CC3)nc(N)c2cc1OC .
inactive

Identify measured outcome obtained with Plasmodium falciparum protein kinase 6 (PK6, PF3D7_1337100) (UniProt Q8IDW1) for COc1ccc(Nc2ncc3c(-c4cccc(NC(=O)c5ccc(N)cc5)c4)c[nH]c3n2)cc1OC .
inactive

Write down the reported outcome (system: Plasmodium falciparum protein kinase 6 (PK6, PF3D7_1337100) (UniProt Q8IDW1)) of O=C(CCc1cccnc1)Nc1cccc(-c2ccc(-c3nc4ccc(C(F)(F)F)cc4[nH]3)s2)c1
inactive

Report its outcome with Plasmodium falciparum protein kinase 6 (PK6, PF3D7_1337100) (UniProt Q8IDW1) as the test system: O=S(=O)(/C=C/c1ccccc1)N(Cc1ccc(-c2ccc(CNCCOc3ccccc3)cc2)cc1)CC1CCCCN1 (stereo not given)
inactive

Send back Plasmodium falciparum protein kinase 6 (PK6, PF3D7_1337100) (UniProt Q8IDW1) outcome of Cc1ccc(Oc2ccc(CNc3nc(Nc4cccc(F)c4)nc(Nc4cccc(F)c4)n3)cc2)cc1 only.
inactive

GET outcome | system: Plasmodium falciparum protein kinase 6 (PK6, PF3D7_1337100) (UniProt Q8IDW1) | item: O=C(Nc1ccc(Cn2ncc(N3CCNCC3)c(Cl)c2=O)cc1)Nc1ccc(-c2ccccc2)cc1
inactive

Jot down outcome (Plasmodium falciparum protein kinase 6 (PK6, PF3D7_1337100) (UniProt Q8IDW1)) of CCOC(=O)c1cn(CC)c2cc(O[C@@H]3CCN(C(=O)OC(C)(C)C)C3)ccc2c1=O .
inactive

Quote Plasmodium falciparum protein kinase 6 (PK6, PF3D7_1337100) (UniProt Q8IDW1) outcome for entry CN1CCC(Oc2ccc(CN3CC[C@H](NC(=O)c4ccc(Cl)c(Cl)c4)C3)cc2Cl)C1 (stereo not given in full) .
inactive
